Answer each item with its documented kon.
Target Desc: human IL-6 (human, UniProt P05231 30-212)
Sequence (P05231 30-212 limits assumed): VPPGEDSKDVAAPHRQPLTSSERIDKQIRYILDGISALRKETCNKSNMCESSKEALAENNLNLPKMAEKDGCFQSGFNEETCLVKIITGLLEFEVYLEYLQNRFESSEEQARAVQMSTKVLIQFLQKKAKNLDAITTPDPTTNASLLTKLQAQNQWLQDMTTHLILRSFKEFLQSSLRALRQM
Experimental Protocol: SPR (Biacore), supernatant antibody on Protein A chip, IL-6 flowed, 37 C
Give bare numbers, in M⁻¹ s⁻¹.

anti-IL-6 antibody, heavy chain S35H, G66D / light chain M32L, M50D, N52S, M88Q (antibody, human IgG1, V domains shown, Human IgG1) VH: EVQLVESGGGLVQPGGSLRLSCAASGFTFSPFAMHWVRQAPGKGLEWVAKISPGGSWTYYSDTVTDRFTFSLDTSKSTAYLQMNSLRAEDTAVYYCARQLWGYYALDIWGQGTLVTVSS VL: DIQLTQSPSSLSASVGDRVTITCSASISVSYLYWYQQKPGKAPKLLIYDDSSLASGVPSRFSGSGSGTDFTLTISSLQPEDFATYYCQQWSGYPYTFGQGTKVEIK : 3.24e+06
anti-IL-6 antibody, heavy chain S35D, G66D / light chain M32L, M50D, N52S, M88Q (antibody, human IgG1, V domains shown, Human IgG1) VH: EVQLVESGGGLVQPGGSLRLSCAASGFTFSPFAMDWVRQAPGKGLEWVAKISPGGSWTYYSDTVTDRFTFSLDTSKSTAYLQMNSLRAEDTAVYYCARQLWGYYALDIWGQGTLVTVSS VL: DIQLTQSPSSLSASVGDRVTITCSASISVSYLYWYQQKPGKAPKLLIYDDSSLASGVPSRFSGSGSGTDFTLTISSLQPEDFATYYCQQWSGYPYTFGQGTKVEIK : 2.35e+06

Next item in the queue.
Per the record, anti-IL-6 antibody, heavy chain T63P, G66D / light chain M32L, M50D, N52S, M88Q (antibody, human IgG1, V domains shown, Human IgG1) VH: EVQLVESGGGLVQPGGSLRLSCAASGFTFSPFAMSWVRQAPGKGLEWVAKISPGGSWTYYSDPVTDRFTFSLDTSKSTAYLQMNSLRAEDTAVYYCARQLWGYYALDIWGQGTLVTVSS VL: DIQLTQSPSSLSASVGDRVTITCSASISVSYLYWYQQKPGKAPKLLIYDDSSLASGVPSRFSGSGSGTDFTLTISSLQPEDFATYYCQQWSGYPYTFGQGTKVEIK has kon of 1.7e+06
